# Test system: MAPKAPK2
# assay_method_text: Inhibition of MAPKAPK2 in GFP-MAPKAPk2_BHK cell model (nuclear translocation)
# Assay type: cell-based
# assay_context: GFP-MAPKAPk2_BHK cells
Known pIC50 of a selection of compounds
Scale note: pIC50 = -log10(concentration in M).

Completed entries (count: 5):
INSERT INTO assay_data (compound, endpoint, result) VALUES
  ('CC(C)(C)c1cc(NC(=O)NCc2ccccc2Oc2ccc3[nH]ncc3c2)n(-c2ccc(Br)cc2)n1 [25f]', 'pIC50', 8.13),
  ('Cc1ccc(-n2nc(C(C)(C)C)cc2NC(=O)NCc2ccccc2Oc2ccc3c(c2)CCCC3O)cc1 (stereo not shown) [27a]', 'pIC50', 6.87),
  ('CC(C)(C)c1cc(NC(=O)Nc2ccc(Oc3ccc4[nH]ncc4c3)c3c2OCC=C3)n(-c2ccc(F)cc2)n1 [26e]', 'pIC50', 7.42),
  ('CC(C)(C)c1cc(NC(=O)NCc2ccccc2Oc2ccc3[nH]ncc3c2)n(-c2ccc(S(N)(=O)=O)cc2)n1 [25k]', 'pIC50', 7.41),
  ('CC(C)(C)c1cc(NC(=O)NCc2ccccc2Oc2ccc3[nH]ncc3c2)n(-c2ccc([N+](=O)[O-])cc2)n1 [25h]', 'pIC50', 8.58);

Given the compound CC(C)(C)c1cc(NC(=O)NCc2ccccc2Oc2ccc3c(c2)CCCC3O)n(-c2ccccc2)n1 (stereo not shown) [27c] , what is its reported pIC50? 6.91

Try this compound too: Cc1ccc(-n2nc(C(C)(C)C)cc2NC(=O)NCc2cc(F)ccc2Oc2ccc3[nH]ncc3c2)cc1 [25j] 8.44

Try this compound too: CC(C)(C)c1cc(NC(=O)NCc2ccccc2Oc2ccc3[nH]ncc3c2)n(-c2ccccc2)n1 [25b] 8.61

Try this compound too: CC(C)(C)c1cc(NC(=O)NCc2ccccc2Oc2ccc3[nH]ncc3c2)n(-c2ccc(Cl)cc2)n1 [25e] 8.00

Try this compound too: CC(C)(C)c1cc(NC(=O)Nc2ccc(Oc3ccc4[nH]ncc4c3)c3c2OCC=C3)n(-c2ccc([N+](=O)[O-])cc2)n1 [26f] 7.39

Try this compound too: Cc1ccc(-n2nc(C(C)(C)C)cc2NC(=O)Nc2ccc(Oc3ccc4[nH]ncc4c3)c3c2OCC=C3)cc1 [26a] 7.22

Try this compound too: COc1ccc(-n2nc(C(C)(C)C)cc2NC(=O)Nc2ccc(Oc3ccc4[nH]ncc4c3)c3c2OCC=C3)cc1 [26d] 7.16

Try this compound too: Cc1ccc(-n2nc(C(C)(C)C)cc2NC(=O)NCc2ccccc2Oc2ccc3[nH]ncc3c2)cc1 [25a] 8.87
